Hello, the source for this data is ChEMBL document CHEMBL1129317, in case you need it.

Endpoint: pIC50. System: 5-hydroxytryptamine receptor 1A (Homo sapiens, UniProt P08908). Items follow.
Sequence (P08908 whole entry): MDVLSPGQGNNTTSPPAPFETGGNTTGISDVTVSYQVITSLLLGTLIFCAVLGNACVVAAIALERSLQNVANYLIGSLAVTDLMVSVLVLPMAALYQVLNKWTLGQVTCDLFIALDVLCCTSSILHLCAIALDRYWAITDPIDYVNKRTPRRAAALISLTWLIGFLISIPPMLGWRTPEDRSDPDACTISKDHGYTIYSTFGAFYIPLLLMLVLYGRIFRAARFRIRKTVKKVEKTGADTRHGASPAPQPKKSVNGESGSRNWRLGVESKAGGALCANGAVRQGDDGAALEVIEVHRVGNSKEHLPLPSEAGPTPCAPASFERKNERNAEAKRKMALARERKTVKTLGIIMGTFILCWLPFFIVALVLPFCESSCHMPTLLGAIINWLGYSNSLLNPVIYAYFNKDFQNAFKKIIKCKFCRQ
Answers are plain numbers, as −log10 of the molar value.

As a guide, the following entries are already answered.
> print(dat)
                                  compound  result.number
1  c1ccc(CN2CCN(c3nc4ccsc4n4cccc34)CC2)cc1           6.40
2            C1=CCN(c2nc3ccsc3n3cccc23)CC1           3.34

Next, consider the following molecule.
Query: So what's the measured pIC50 for this one? CCOC(=O)N1CCN(c2nc3ccsc3n3cccc23)CC1
Reply: 4.47

* * *

# TGT: 5-hydroxytryptamine receptor 2A (Bos taurus)
# Sequence (Q75Z89 whole entry): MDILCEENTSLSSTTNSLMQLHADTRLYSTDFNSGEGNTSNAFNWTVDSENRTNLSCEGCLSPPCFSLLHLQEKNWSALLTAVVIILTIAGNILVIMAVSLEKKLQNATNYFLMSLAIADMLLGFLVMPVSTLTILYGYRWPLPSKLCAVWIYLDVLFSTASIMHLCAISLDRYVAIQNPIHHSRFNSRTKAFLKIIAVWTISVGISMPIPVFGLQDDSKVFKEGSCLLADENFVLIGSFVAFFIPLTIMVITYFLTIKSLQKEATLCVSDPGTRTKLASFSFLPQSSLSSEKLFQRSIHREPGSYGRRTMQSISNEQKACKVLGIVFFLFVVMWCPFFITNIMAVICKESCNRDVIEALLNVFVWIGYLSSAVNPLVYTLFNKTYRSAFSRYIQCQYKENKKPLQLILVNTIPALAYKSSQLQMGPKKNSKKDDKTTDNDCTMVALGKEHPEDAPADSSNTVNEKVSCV
For each entry below, report its log10 IC50 value.
Give log10 of IC50, with IC50 taken in µM.

> print(dat)
                                  compound  result.number
1  Fc1ccc(N2CCN(c3nc4ccsc4n4cccc34)CC2)cc1           2.65

Hey, quick one: what's log10 IC50 for each of these?
1. c1cc2c(N3CCN(Cc4ccc5c(c4)OCO5)CC3)nc3ccsc3n2c1
2. O=C(CN1CCN(c2nc3ccsc3n3cccc23)CC1)N1CCCC1
3. Clc1ccc(N2CCN(c3nc4ccsc4n4cccc34)CC2)cc1
4. Cc1sc2c(nc(N3CCN(Cc4ccccc4)CC3)c3cccn32)c1C
5. O=C(c1ccc(F)cc1)N1CCN(c2nc3ccsc3n3cccc23)CC1

Reply:
1: 1.04; 2: 1.16; 3: 2.57; 4: 2.24; 5: 2.18

Give log10 IC50 for each of the items listed below.
1. Clc1ccc(CN2CCN(c3nc4sccc4n4cccc34)CC2)cc1Cl
2. c1cc2c(N3CCNCC3)nc3ccsc3n2c1

Reply:
[2.28, 0.42]

Query: Consider the molecule c1ccc(CN2CCN(c3nc4ccsc4n4cccc34)CC2)cc1 and give its measured log10 IC50.
Reply: 0.64

* * *

# TGT: UniProt:P28564
# Sequence (P28564 whole entry): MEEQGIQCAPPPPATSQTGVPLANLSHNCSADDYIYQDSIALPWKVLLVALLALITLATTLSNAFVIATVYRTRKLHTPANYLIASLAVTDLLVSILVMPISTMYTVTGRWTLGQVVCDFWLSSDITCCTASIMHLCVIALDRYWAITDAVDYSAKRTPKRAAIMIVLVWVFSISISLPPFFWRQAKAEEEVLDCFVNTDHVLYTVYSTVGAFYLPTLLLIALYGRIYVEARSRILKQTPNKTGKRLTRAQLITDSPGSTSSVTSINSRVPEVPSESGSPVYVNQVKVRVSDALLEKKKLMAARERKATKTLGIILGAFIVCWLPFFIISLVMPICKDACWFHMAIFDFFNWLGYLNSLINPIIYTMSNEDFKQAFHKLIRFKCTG
# ASSAY: Binding affinity for 5-hydroxytryptamine 1B receptor
Assign pIC50 to each entry below.
Give bare numbers, as −log10 of the molar value.

> print(dat)
                                   compound             tgt  result.number
1  O=C(c1ccc(F)cc1)N1CCN(c2nc3ccsc3n3cccc23)CC1  UniProt:P28564           3.95

Would you mind giving pIC50 for every molecule in the list below?
1. Clc1ccc(CN2CCN(c3nc4sccc4n4cccc34)CC2)cc1Cl
2. c1ccc(CN2CCN(c3nc4ccsc4n4cccc34)CC2)cc1

Reply:
4.47
5.99

For the 6 molecules below, give their pIC50 values.
1. c1ccc2nc(N3CCNCC3)ccc2c1
2. Fc1ccc(CN2CCN(c3nc4ccsc4n4cccc34)CC2)cc1
3. CCOC(=O)CN1CCN(c2nc3ccsc3n3cccc23)CC1
4. Fc1ccc(CN2CCN(c3nc4sccc4n4cccc34)CC2)cc1
5. CCCN1CCN(c2nc3ccsc3n3cccc23)CC1
6. c1cc2c(N3CCN(Cc4ccc5c(c4)OCO5)CC3)nc3sccc3n2c1

Reply:
5.15
4.84
6.17
2.80
5.96
5.15

Provide pIC50 values for the following items, in order.
1. Clc1ccc(CN2CCN(c3nc4ccsc4n4cccc34)CC2)cc1Cl
2. CN1CCN(c2nc3ccsc3n3cccc23)CC1
3. FC(F)(F)c1cccc(N2CCN(c3nc4scc(-c5ccccc5)c4n4cccc34)CC2)c1
4. c1cc2c(N3CCN(CC4CC4)CC3)nc3ccsc3n2c1
5. C=CCN1CCN(c2nc3sccc3n3cccc23)CC1

Reply:
[5.37, 4.95, 4.72, 4.99, 6.38]

* * *

# TGT: 5-hydroxytryptamine receptor 2C (Homo sapiens, UniProt P28335)
# Sequence (P28335 whole entry): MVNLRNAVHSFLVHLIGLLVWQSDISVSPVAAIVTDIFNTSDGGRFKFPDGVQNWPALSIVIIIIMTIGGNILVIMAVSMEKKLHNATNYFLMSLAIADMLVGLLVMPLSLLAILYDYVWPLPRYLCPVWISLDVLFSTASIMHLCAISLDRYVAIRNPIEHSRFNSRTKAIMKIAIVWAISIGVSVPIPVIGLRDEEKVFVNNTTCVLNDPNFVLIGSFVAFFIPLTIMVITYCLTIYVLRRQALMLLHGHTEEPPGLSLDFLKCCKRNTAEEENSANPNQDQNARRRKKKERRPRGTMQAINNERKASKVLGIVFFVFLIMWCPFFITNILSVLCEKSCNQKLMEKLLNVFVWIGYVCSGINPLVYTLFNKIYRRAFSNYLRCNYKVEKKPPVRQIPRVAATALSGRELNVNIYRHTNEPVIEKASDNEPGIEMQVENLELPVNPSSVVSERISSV
I'd appreciate it if you could supply pIC50 values for the items below.
One number for each entry, as −log10 of the molar value.

Example cases with answers are listed next.
> print(dat)
                                   compound  result.number
1  Cc1sc2c(nc(N3CCN(Cc4ccccc4)CC3)c3cccn32)c1C           3.81
2  Fc1ccc(CN2CCN(Cc3nc4ccsc4n4cccc34)CC2)cc1           4.85
3  FC(F)(F)c1cccc(N2CCN(c3nc4sccc4n4cccc34)CC2)c1           5.23

Query: Sample c1cc2c(N3CCN(Cc4ccc5c(c4)OCO5)CC3)nc3sccc3n2c1 — what was its pIC50?
Reply: 5.59

* * *

# TGT: UniProtKB Q75Z89
PROPERTY MEASURED: log10 IC50 (log10 of the value in µM)
A difference of one corresponds to tenfold IC50; all values are log10 with IC50 in µM.

> print(dat)
                                   compound  property.measured  result.number
1  Clc1ccc(CN2CCN(c3nc4sccc4n4cccc34)CC2)c(Cl)c1         log10 IC50           2.68
2          C=CCN1CCN(c2nc3ccsc3n3cccc23)CC1         log10 IC50          -0.07
3   c1ccc(-c2cc3nc(N4CCNCC4)c4cccn4c3s2)cc1         log10 IC50           2.48
4  FC(F)(F)c1cccc(N2CCN(c3nc4scc(-c5ccccc5)c4n4cccc34)CC2)c1         log10 IC50           1.94
5             CN1CCN(c2nc3sccc3n3cccc23)CC1         log10 IC50           0.37
6  Clc1ccc(CN2CCN(c3nc4ccsc4n4cccc34)CC2)c(Cl)c1         log10 IC50           0.87
7  FC(F)(F)c1cccc(N2CCN(c3nc4sccc4n4cccc34)CC2)c1         log10 IC50           2.92
8  c1cc2c(N3CCN(Cc4ccc5c(c4)OCO5)CC3)nc3sccc3n2c1         log10 IC50           1.39

# map each compound to its log10 IC50
1. c1cc2c(N3CCOCC3)nc3ccsc3n2c1
2. c1ccc2nc(N3CCNCC3)ccc2c1

Reply:
1. 1.60
2. 0.54

* * *

Quick note: these are IC50 numbers for system: 5-hydroxytryptamine receptor 2C (Homo sapiens)
Numbers only, in µM.

Known results for molecules:
> print(dat)
                                   compound  property.measured  unit.abbrev  result.number
1  Clc1ccc(N2CCN(c3nc4ccsc4n4cccc34)CC2)cc1               IC50           µM            102
2  Clc1ccc(CN2CCN(c3nc4ccsc4n4cccc34)CC2)cc1Cl               IC50           µM           3.89
3  FC(F)(F)c1ccccc1CCN1CCN(c2nc3ccsc3n3cccc23)CC1               IC50           µM           1.07
4                  c1ccc2nc(N3CCNCC3)ccc2c1               IC50           µM         0.0617

Provide the reported IC50 of each entry below, same order.
1. C=CCN1CCN(c2nc3sccc3n3cccc23)CC1
2. Clc1ccc(CN2CCN(c3nc4sccc4n4cccc34)CC2)cc1Cl
3. CCOC(=O)CN1CCN(c2nc3ccsc3n3cccc23)CC1
4. c1ccc(CN2CCN(c3nc4ccsc4n4cccc34)CC2)cc1
5. FC(F)(F)c1cccc(N2CCN(c3nc4sc(-c5ccccc5)cc4n4cccc34)CC2)c1

Reply:
1. 0.759
2. 8.71
3. 61.7
4. 1.86
5. 23.4

* * *

# TGT: Serotonin 3 (5-HT3) receptor (Rattus norvegicus, UniProt P35563+Q9JJ16)
# Sequence (P35563 whole entry): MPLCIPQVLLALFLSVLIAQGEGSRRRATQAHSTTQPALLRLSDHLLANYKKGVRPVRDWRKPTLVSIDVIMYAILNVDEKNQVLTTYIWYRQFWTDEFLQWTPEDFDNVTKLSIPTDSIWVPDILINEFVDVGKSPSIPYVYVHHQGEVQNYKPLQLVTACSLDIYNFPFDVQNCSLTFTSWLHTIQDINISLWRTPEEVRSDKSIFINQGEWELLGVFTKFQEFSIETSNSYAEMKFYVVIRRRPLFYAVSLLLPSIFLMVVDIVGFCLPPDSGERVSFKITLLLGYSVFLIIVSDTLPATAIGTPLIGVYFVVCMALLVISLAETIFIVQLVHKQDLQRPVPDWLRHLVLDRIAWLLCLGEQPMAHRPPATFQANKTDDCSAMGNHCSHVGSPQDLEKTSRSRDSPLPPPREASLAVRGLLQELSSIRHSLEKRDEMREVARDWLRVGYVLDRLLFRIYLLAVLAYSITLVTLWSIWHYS
# Sequence (Q9JJ16 whole entry): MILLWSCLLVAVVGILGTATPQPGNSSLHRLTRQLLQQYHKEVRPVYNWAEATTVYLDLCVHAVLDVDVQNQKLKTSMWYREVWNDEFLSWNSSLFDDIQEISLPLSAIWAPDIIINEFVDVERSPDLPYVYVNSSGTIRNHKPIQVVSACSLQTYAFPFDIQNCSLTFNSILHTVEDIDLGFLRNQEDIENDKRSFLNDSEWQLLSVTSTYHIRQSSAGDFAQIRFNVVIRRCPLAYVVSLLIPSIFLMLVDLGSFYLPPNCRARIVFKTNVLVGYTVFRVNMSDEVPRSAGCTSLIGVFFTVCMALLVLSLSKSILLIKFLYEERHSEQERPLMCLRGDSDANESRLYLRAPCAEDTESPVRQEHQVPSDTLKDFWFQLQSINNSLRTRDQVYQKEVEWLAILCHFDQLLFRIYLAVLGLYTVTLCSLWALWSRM
# ASSAY: Binding affinity towards 5-hydroxytryptamine 3 receptor
Would you mind telling me the reported IC50 of each entry?
Answers are plain numbers, in nM.

Some entries whose results are on file:
> print(dat)
                                   compound  result.number
1  CN1CCN(c2nc3sc(-c4ccccc4)cc3n3cccc23)CC1          21400
2  c1ccc(CN2CCN(c3nc4scc(-c5ccccc5)c4n4cccc34)CC2)cc1           6760
3   c1ccc(CN2CCN(c3nc4sccc4n4cccc34)CC2)cc1           4.57

For every record below, what is its IC50?
1. Fc1ccc(CN2CCN(c3nc4ccsc4n4cccc34)CC2)cc1
2. c1ccc(CN2CCN(c3nc4ccsc4n4cccc34)CC2)cc1
3. C=CCN1CCN(c2nc3ccsc3n3cccc23)CC1
4. CCOC(=O)CN1CCN(c2nc3ccsc3n3cccc23)CC1

Reply:
1. 21.4
2. 1.41
3. 2.63
4. 4070

Give me IC50 for each of these compounds, listed below.
1. FC(F)(F)c1cccc(N2CCN(c3nc4ccsc4n4cccc34)CC2)c1
2. Clc1ccc(CN2CCN(c3nc4sccc4n4cccc34)CC2)cc1Cl
3. FC(F)(F)c1ccccc1CCN1CCN(c2nc3ccsc3n3cccc23)CC1
4. O=C(CN1CCN(c2nc3ccsc3n3cccc23)CC1)N1CCCC1

Reply:
1: 1580; 2: 1170; 3: 269000; 4: 1480
